ASSAY OVERVIEW: Fraction unbound in Wistar Han rat brain at 2 uM incubated for 6 hrs by equilibrium dialysis method
// map fraction unbound at 6 h, 2 µM onto a label; ranges bucket 1: < 0.04; bucket 2: ≥ 0.04 and < 0.1; bucket 3: ≥ 0.1

# ENTRY SMILES, CATEGORY LABEL
measured = [
    ("O=C(c1cccc(N2CCNCC2)n1)N1CCC(c2ccccc2F)CC1", "bucket 1"),
    ("O=C(NC(c1ccccc1)c1ccccc1)C1CC1", "bucket 2"),
    ("COc1ccc(-c2cc3c(S(=O)(=O)O)c[nH]c3cc2Cl)cc1", "bucket 2"),
    ("COc1cc(/C=C2\\CCCN([C@@H](C)c3ccc(F)cc3)C2=O)ccc1-n1cnc(C)c1", "bucket 1"),
    ("Cc1nc2cc(-c3cc(F)cc(C#N)c3)ccc2s1", "bucket 1"),
    ("CS(=O)(=O)c1cccc(C(=O)O)c1", "bucket 3"),
    ("CN(C)C[C@@H](OC(=O)N1Cc2c(NC(=O)C3(C(F)(F)F)CC3)n[nH]c2C1(C)C)c1ccccc1", "bucket 2"),
    ("O=c1[nH]c(=S)n(CCO)c2cc[nH]c12", "bucket 3"),
]

* * *

ASSAY OVERVIEW: Unbound tissue partition coefficient, ratio of drug level in brain to plasma in Wistar Han rat at 1 to 2 mg/kg, iv infused for 10 to 20 hrs by LC-MS/MS analysis
RECORDED CONDITIONS: brain/plasma

# MOLECULE, Kp uu
records = [
    ("CCCn1cnc(C[C@H](CCCN)C(=O)O)c1 [UK-396,082]", 0.19),
    ("O=C(O)[C@@H]1CCCN(C(=O)n2cnc(-c3ccc(-c4cnc(N5CCOCC5)nc4)cc3)n2)[C@H]1c1ccccc1", 0.0089),
    ("NC(=O)c1c(-c2ccc(Oc3ccc(Cl)cc3)cc2)nn([C@@H]2CCCN(C(=O)/C=C/CO)C2)c1N", 0.011),
    ("Cc1ccc(NC(=O)c2cc(Oc3ccc(S(C)(=O)=O)cc3)c3c(c2)OC(C)(C)C3)nc1", 0.1),
    ("C[C@H]1COCCN1c1nc(-c2cnc(N)nc2)c2c(n1)N([C@@]1(C)CCN(C(=O)C(C)(C)N)C1)CC2", 0.065),
    ("CN(C)C[C@@H](OC(=O)N1Cc2c(NC(=O)C3(C(F)(F)F)CC3)n[nH]c2C1(C)C)c1ccccc1", 0.013),
    ("C[C@H]1C[C@H]2CSC(N)=N[C@@]2(c2cc(C#N)ccc2F)CO1", 2.1),
    ("O=C(NC1CC1)c1nc2cccnn2c1-c1ccc2ncnn2c1", 2.5),
    ("COCCCN1C[C@H](C)N(C(=O)N2Cc3c(NC(=O)c4ccccn4)n[nH]c3C2(C)C)C[C@H]1C", 0.015),
    ("Cn1nc(C(=O)NCCN2CCOCC2)cc1-c1cc2ccccc2[nH]1", 0.12),
    ("Cn1ncc(-c2ccc(C(=O)N(c3ncccc3Cl)[C@@H]3CCCNC3)cc2)c1C(=O)O", 0.16),
    ("C[C@H](CN1CCOCC1)n1/c(=N\\C(N)=O)[nH]c2cc(/C=C3\\c4ccccc4COc4cc(F)ccc43)ccc21 [LY2623091]", 0.028),
    ("O=C(NC1CCCC1)C1CCN(c2nc3cc(Cl)ccc3o2)CC1", 0.64),
    ("COc1cc(/C=C2\\CCCN([C@@H](C)c3ccc(F)cc3)C2=O)ccc1-n1cnc(C)c1", 0.4),
    ("Nc1noc2ccc(-c3cc(Cl)ccc3Oc3cc(F)c(S(=O)(=O)Nc4cscn4)cc3F)cc12", 0.0018),
    ("CC1(C)CN(CCC#N)C(=O)[C@@H]1Oc1ccc(C#N)c(C(F)(F)F)c1", 0.11),
    ("CC(C)n1ncc2c1C(=O)CC1(CCN(C(=O)c3ccc4[nH]nc(C(N)=O)c4c3)CC1)C2", 0.0018),
    ("O=C(O)c1c[nH]c2cc(Cl)c(-c3ccc(CC(=O)N4CCOCC4)cc3)cc12", 0.0018),
]

meta.source: ChEMBL document CHEMBL4373746
